Recorded values, source PubChem BioAssay (NCATS).

# subject_of_test: Rap guanine nucleotide exchange factor 4 (Homo sapiens) (UniProt Q8WZA2)
# Sequence (Q8WZA2 whole entry, looked up): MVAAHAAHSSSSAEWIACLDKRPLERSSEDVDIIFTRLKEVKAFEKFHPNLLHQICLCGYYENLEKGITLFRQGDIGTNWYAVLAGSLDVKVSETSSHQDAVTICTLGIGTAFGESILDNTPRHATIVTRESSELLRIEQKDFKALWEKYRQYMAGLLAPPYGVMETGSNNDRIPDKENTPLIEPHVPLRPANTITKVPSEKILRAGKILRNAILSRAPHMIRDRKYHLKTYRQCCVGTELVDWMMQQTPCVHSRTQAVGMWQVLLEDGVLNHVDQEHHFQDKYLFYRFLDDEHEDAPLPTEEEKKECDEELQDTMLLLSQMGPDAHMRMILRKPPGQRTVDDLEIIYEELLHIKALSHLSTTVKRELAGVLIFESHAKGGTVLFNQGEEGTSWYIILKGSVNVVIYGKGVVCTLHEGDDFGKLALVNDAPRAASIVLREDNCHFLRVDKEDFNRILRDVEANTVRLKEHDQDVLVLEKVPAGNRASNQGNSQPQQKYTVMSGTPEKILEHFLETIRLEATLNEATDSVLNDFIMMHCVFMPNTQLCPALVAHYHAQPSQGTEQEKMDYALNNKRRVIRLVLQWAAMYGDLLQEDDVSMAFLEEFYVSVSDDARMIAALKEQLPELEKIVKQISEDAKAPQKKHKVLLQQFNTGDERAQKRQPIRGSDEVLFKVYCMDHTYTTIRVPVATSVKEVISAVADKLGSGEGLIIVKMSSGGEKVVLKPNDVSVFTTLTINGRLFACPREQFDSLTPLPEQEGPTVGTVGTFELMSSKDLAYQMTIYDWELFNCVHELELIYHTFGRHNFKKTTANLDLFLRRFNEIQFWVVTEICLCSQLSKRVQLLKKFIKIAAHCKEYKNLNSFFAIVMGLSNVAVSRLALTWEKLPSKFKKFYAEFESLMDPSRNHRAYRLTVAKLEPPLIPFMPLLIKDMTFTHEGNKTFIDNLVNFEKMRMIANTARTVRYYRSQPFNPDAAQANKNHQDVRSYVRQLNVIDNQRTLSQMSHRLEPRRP
# assay_explanation: Confirmatory qHTS for antagonist of cAMP-regulated guanine nucleotide exchange factor 4 (EPAC2) (AID 1645885); note: nearly all actives have a fitted effect of over 25% in size
# cond: EPAC2 Rap1B-BODIPY-GDP exchange fluorescence, biochemical; series mostly up to 12.7 µM
Results filed as inconclusive are left out. Active and inactive are the calls of the source. Calls come from the whole dose curve; as a rule, active = well fitted inhibition curve with a large enough effect; inconclusive = small, poorly fitted or top-dose-only effect; inactive = no such curve, though single readings can be large or run the other way.
Answer with one of the outcomes given here: active, inactive

Take a look at these entries with their results.
compound | class_assignment
CN(Cc1cccc2ncccc12)C(=O)c1cnn(-c2nccc(-c3ccccc3F)n2)c1C1CC1 | active
O=C1NC(=O)C2(N1)C(=O)c1cccc3cccc2c13 (stereo not given) | active
COc1ccc(C2C=C(c3ccccc3)Nc3nnnn32)cc1 (stereo not given) | inactive
Cc1ccc(C(=O)c2cn(Cc3ccccc3)c3nc(C)ccc3c2=O)cc1 | inactive
CCc1nc2ccc(C(=O)N(C)Cc3ccccc3)cn2c1N(CC)Cc1cccc(Br)c1 | inactive

(Q) Please state the recorded outcome for this compound: CC(C(=O)Nc1ccccc1-c1ccccc1)N1CCN(C(=O)c2ccccc2)CC1 (stereo not given)
(A) inactive

(Q) Tell me the recorded outcome of this test for `CC(C)(C)C(=O)Nc1ccc2nc(SCC(=O)N3CCc4ccccc43)sc2c1` .
(A) inactive

(Q) What is the recorded call for this compound in the test? `Cc1ccc2c(c1)c(/C=C/c1cc[n+](C)cc1)c(C)n2C`
(A) inactive

(Q) State the result this test recorded for `CC(C)(C)c1cc(NC(=O)COC(=O)c2ccc(O)cc2O)n(-c2ccccc2)n1` .
(A) inactive

(Q) Call for entry `Clc1ccc(CSc2nncn3c2cc2occc23)cc1` :
(A) inactive

---

# System: CP194
# assay_explanation: qHTS profiling for inhibitors of Plasmodium falciparum proliferation (AID 504749); note: nearly all actives have a fitted effect of over 60% in size
# cond: P. falciparum in erythrocytes, SYBR Green DNA, 72 h; series mostly up to 12.8 µM
# Method: NIH National Institute of Allergy and Infectious Diseases [NIAID] NIH Chemical Genomics Center [NCGC] […] Because mature erythrocytes lack DNA, only Plasmodium-derived DNA is detected. NCGC Assay Protocol Summary: The SYBR Green viability assay was adapted from a method described previously (Plouffe et al., 2008). […] The following morning, fluorescence intensity at 485(14) nm excitation and 535(25) nm emission wavelengths was measured on an EnVision (Perkin Elmer) plate reader. […]
Inconclusive results are not listed. Activity calls are given as the source filed them. The call rests on the fitted dose curve; in most records, active means well fitted inhibition curve with a large enough effect; inconclusive means small, poorly fitted or top-dose-only effect; inactive means flat fitted curve, though single readings scatter.
Just give me one of these, please: active, inactive

Use these answered entries as a reference point.
compound | class_assignment
C1CCN2C[C@@H]3C[C@@H](CN4CCCC[C@H]34)[C@H]2C1 | inactive
CC(=O)OCC(=O)[C@@]1(O)CC[C@@H]2[C@H]3CCC4=CC(=O)C=C[C@]4(C)[C@]3(F)[C@@H](O)C[C@@]21C | inactive
CC(C)=CCC[C@](C)(O)C1CC=C(C)CC1 (some centres undefined) | inactive
CC1(C)OC2CC(=O)OC[C@@]23C1CC(=O)[C@]1(C)C3CC[C@@]2(C)C(c3ccoc3)OC(=O)C3O[C@@]321 (some centres undefined) | inactive
C/C1=C2N=C(/C=C3N=C(/C(C)=C4\[N-]C(C)(C5N=C1C(C)(CCC(=O)NCC(C)OP(=O)([O-])O[C@H]1C(O)C(n6cnc7cc(C)c(C)cc76)O[C@@H]1CO)C5CC(N)=O)C(C)(CC(N)=O)C4CCC(N)=O)C(C)(CC(N)=O)C\3CCC(N)=O)C(C)(C)C/2CCC(N)=O.[CH2-]C1OC(n2cnc3c(N)ncnc32)C(O)C1O.[Co] (some centres undefined) | inactive
CCC(CCC(C)C1CCC2C3CC=C4CC(O)CC[C@@]4(C)C3CC[C@@]12C)C(C)C (some centres undefined) | inactive
NCC1CCC(N)C(O[C@@H]2C(O)[C@H](O[C@H]3OC(CO)C(O)C(N)C3O)[C@@H](N)C[C@H]2N)O1 (some centres undefined) | inactive
CO[C@H]1[C@@H](OC(N)=O)[C@H](O)[C@@H](Oc2ccc3c(O)c(NC(=O)c4ccc(O)c(CC=C(C)C)c4)c(=O)oc3c2C)OC1(C)C | inactive
CNC1C(OC2C(O[C@@H]3C(O)C(O)[C@@H](N=C(N)N)C(O)C3N=C(N)N)OC(C)[C@@]2(O)CO)OC(CO)C(O)C1O (some centres undefined) | inactive
Cn1nnnc1SCC1=C(C(=O)O)N2C(=O)[C@@H](NC(=O)[C@@H](O)c3ccccc3)[C@@H]2SC1 | inactive

(Q) Dear all, I need the recorded test outcome for CCC(C)C(=O)OC1CC(O)C=C2C=CC(C)C(CCC(O)CC(O)CC(=O)O)C21 (centres undefined) , thank you.
(A) inactive

(Q) Short answer needed: outcome of this test for `Cc1ncc([N+](=O)[O-])n1C[C@H](O)CCl` ?
(A) inactive

(Q) Per the assay record, what outcome was assigned to `CC(=O)OCC(=O)[C@@]12OC(C)(C)O[C@@H]1C[C@H]1[C@H]3C[C@H](F)C4=CC(=O)C=C[C@@]4(C)[C@]3(F)[C@H](O)C[C@@]12C` ?
(A) inactive

(Q) Give the logged outcome of this assay for the following compound: `CC[C@@H]1OC(=O)[C@H](C)[C@H](O[C@@H]2C[C@](C)(OC)[C@H](O)[C@H](C)O2)[C@H](C)[C@H](O[C@@H]2O[C@@H](C)C[C@@H](N(C)C)[C@@H]2O)[C@](C)(O)C[C@H](C)C(=NOCOCCOC)[C@H](C)[C@H](O)[C@]1(C)O`
(A) inactive

(Q) // outcome(item) with item = `CC(C)Oc1ccc2c(=O)cc(-c3ccccc3)oc2c1`
(A) inactive

(Q) Just curious, what result did `CC[C@H]1NC(=O)c2cc(S(N)(=O)=O)c(Cl)cc2N1` get here?
(A) inactive

(Q) Recorded call for `CN1C(=O)C[C@H](c2ccccc2)C1=O` ?
(A) inactive

(Q) Record lookup: outcome of this test for O=C1OC(CO)C(O)C(O)C1O (centres undefined) ?
(A) inactive

(Q) Could you kindly confirm the outcome this assay logged for `C[C@H](O)Cn1cnc2c1c(=O)n(C)c(=O)n2C` ?
(A) inactive

---

# Test system: N140
# assay_explanation: qHTS profiling for inhibitors of Plasmodium falciparum proliferation (AID 504749); note: nearly all actives have a fitted effect of over 60% in size
# cond: P. falciparum in erythrocytes, SYBR Green DNA, 72 h; series mostly up to 12.8 µM
# Method: NIH National Institute of Allergy and Infectious Diseases [NIAID] NIH Chemical Genomics Center [NCGC] […] Because mature erythrocytes lack DNA, only Plasmodium-derived DNA is detected. NCGC Assay Protocol Summary: The SYBR Green viability assay was adapted from a method described previously (Plouffe et al., 2008). […] The following morning, fluorescence intensity at 485(14) nm excitation and 535(25) nm emission wavelengths was measured on an EnVision (Perkin Elmer) plate reader. […]
Inconclusive results are not listed. Activity calls are given as the source filed them. Calls follow the shape of the dose curve; as a rule, active = well fitted inhibition curve with a large enough effect; inconclusive = small, poorly fitted or top-dose-only effect; inactive = flat fitted curve, though single readings scatter.
Outcome field: choose from true (1) = active, false (0) = inactive

Example results:
compound | subject_of_test | class_assignment
Cc1cccc(C)c1NC(=O)[C@H](C)N | N140 | false (0)
CC(=O)OCC(=O)[C@@]12OC(C)(C)O[C@@H]1C[C@H]1[C@H]3C[C@H](F)C4=CC(=O)C=C[C@@]4(C)[C@]3(F)[C@H](O)C[C@@]12C | N140 | false (0)
CN(C)CCCOC1C(C(O)CO)OC2OC(C)(C)O[C@@H]21 (some centres not stated) | N140 | false (0)
CN[C@H]1[C@H](O)[C@@H](O[C@@H]2[C@H](O)[C@@H](O[C@H]3OC(CN)=CC[C@H]3N)[C@@H](N)C[C@H]2N)OC[C@@]1(C)O | N140 | false (0)
COC1C=CO[C@@]2(C)Oc3c(C)c(O)c4c(O)c(c(C=NN5CCN(C)CC5)c(O)c4c3C2=O)NC(=O)/C(C)=C\C=CC(C)C(O)[C@@H](C)C(O)C(C)[C@H](OC(C)=O)C1C (some centres not stated) | N140 | true (1)

(Q) Would you mind telling me which call this test gave CCCCC[C@H](O)/C=C\[C@H]1[C@H](C/C=C\CCCC(=O)O)[C@@H](O)C[C@H]1O (tested in a mixture with another compound) ?
(A) false (0)

(Q) What was the test verdict on `C=CCN1C(=CCO)[C@H]2C[C@H]3[C@@H]1CC[C@@]31c3ccccc3N3C=C4[C@@H]5N(/C=C/2[C@H]31)c1ccccc1[C@]51CC[C@H]2[C@H]1C[C@@H]4/C(=C/CO)N2CC=C` ?
(A) false (0)

---

# System: P93_24
# assay_explanation: qHTS profiling for inhibitors of Plasmodium falciparum proliferation (AID 504749); note: nearly all actives have a fitted effect of over 60% in size
# cond: P. falciparum in erythrocytes, SYBR Green DNA, 72 h; series mostly up to 12.8 µM
Inconclusive results are not listed. Calls of active or inactive are those of the source. Calls come from the whole dose curve; as a rule, active = well fitted inhibition curve with a large enough effect; inconclusive = small, poorly fitted or top-dose-only effect; inactive = flat fitted curve, though single readings scatter.
Hi there, use one of these labels in your reply, thanks! T (active), F (inactive)

compound | class_assignment
NC(CCC(=O)N[C@@H](CS)C(=O)NCC(=O)O)C(=O)O (stereo not given in full) | T
COC1C=CO[C@@]2(C)Oc3c(C)c(O)c4c(O)c(c5c(nc6cc(C)ccn65)c4c3C2=O)NC(=O)/C(C)=C\C=CC(C)C(O)[C@@H](C)C(O)C(C)[C@@H](OC(C)=O)C1C (stereo not given in full) | T
CC1C2CCC3C4CC=C5CC(N(C)C)CC[C@@]5(C)C4CC[C@@]32CN1C (stereo not given in full) | F
CCC1OC(=O)C(C)[C@@H](O[C@H]2C[C@@](C)(OC)C(O)C(C)O2)C(C)[C@@H](O[C@@H]2OC(C)CC(N(C)C)C2O)[C@@](C)(O)CC(C)C(=O)[C@@H](C)C(O)[C@]1(C)O (stereo not given in full) | F
NCC1CCC(N)C(O[C@@H]2C(O)[C@H](O[C@H]3OC(CO)C(O)C(N)C3O)[C@@H](N)C[C@H]2N)O1 (stereo not given in full) | F
CNC1C(OC2C(O[C@@H]3C(O)C(O)[C@@H](N=C(N)N)C(O)C3N=C(N)N)OC(C)[C@@]2(O)CO)OC(CO)C(O)C1O (stereo not given in full) | F
Cc1ncc([N+](=O)[O-])n1C[C@H](O)CCl | F
C=CCN1C(=CCO)[C@H]2C[C@H]3[C@@H]1CC[C@@]31c3ccccc3N3C=C4[C@@H]5N(/C=C/2[C@H]31)c1ccccc1[C@]51CC[C@H]2[C@H]1C[C@@H]4/C(=C/CO)N2CC=C | F
CNC1CC(N)[C@H](O)[C@@H](O[C@@H]2OC(CO)C3OC4(OC(C(N)CO)C(O)C(O)C4O)O[C@@H]3[C@H]2O)C1O (stereo not given in full) | F
O=C(NC[C@@H](O)CO)c1c(I)c(C(=O)NC[C@@H](O)CO)c(I)c(N(CCO)C(=O)CO)c1I | F

Let's switch to this compound now.
(Q) Give the logged outcome of this assay for the following compound: CC1(C)SC2C(N3C(=O)C(c4ccccc4)NC3(C)C)C(=O)N2C1C(=O)O (stereo not given)
(A) F
